Provenance of the data: PubChem BioAssay AID1159580

Test: chemical genetic growth profiling, strain panel (AID 1159580);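 note: tested at 20 µM; growth read once vehicle control cultures reached saturation at 30 °C; 1 = growth at the plate median or of vehicle wells; lower values mean less growth of the strain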
Details: S. cerevisiae deletion strains, growth OD, locus YJL092W, strain hpr5, stronger effect = lower value
Hit rate of the full screen: of about 5,500 compounds, about 2,000 (36%) were called active. Another 18% or so got no clear call; they are omitted. The list shows a part of the results.

{"compound": "CCCCCCCCC(=O)NCc1ccc(O)c(OC)c1", "normalized growth": 0.978}
{"compound": "COc1ccc(OC)c(C(O)CNC(=O)CN)c1 (configuration not stated)", "normalized growth": 1.01}
{"compound": "C[n+]1c2cc(N)ccc2cc2ccc(N)cc21", "normalized growth": 0.253}
{"compound": "CC[C@@]1(O)C[C@H](O)c2c(cc3c(c2O)C(=O)c2c(O)ccc(O)c2C3=O)[C@H]1C(=O)OC", "normalized growth": 0.734}
{"compound": "O=C1NCC2(CCN(CCc3ccccc3)CC2)O1", "normalized growth": 0.997}
{"compound": "NCCc1cnc[nH]1", "normalized growth": 1.02}
{"compound": "CCCc1cc(C(N)=S)ccn1", "normalized growth": 0.971}

###

Form field: normalized growth (one value per entry).
Assay: chemical genetic growth profiling, strain panel (AID 1159580);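 note: tested at 20 µM; growth read once vehicle control cultures reached saturation at 30 °C; 1 = growth at the plate median or of vehicle wells; lower values mean less growth of the strain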
Conditions: S. cerevisiae deletion strains, growth OD, locus YLR058C, strain SHM2 (second series), stronger effect = lower value
Among all 5,500 compounds or so, about 2,000 (36%) were called active. Another 18% or so got no clear call; they are omitted. The list shows a part of the results.
measured metric: normalized growth

{"compound": "C/C(=N/O)c1sc2nc(C(F)(F)F)nn2c1C", "value": 0.953}
{"compound": "COC(=O)c1ccc2c(c1)N(C)S(=O)(=O)CC2=O", "value": 1.01}
{"compound": "O=C(CCc1nc(-c2ccc(Cl)cc2)no1)NNS(=O)(=O)c1cc(Cl)c(Cl)cc1Cl", "value": 1.01}
{"compound": "Cc1nn(C)c(C)c1[N+](=O)[O-]", "value": 1.01}
{"compound": "O=C1c2ccccc2C(=O)C1(c1ccccc1)[N+](=O)[O-]", "value": 1.03}
{"compound": "S=C1NCN(CCN2CCCC2)CN1", "value": 1.01}
{"compound": "CCOC(=O)Cc1csc(N=CNO)n1", "value": 1.02}
{"compound": "CCOC(=O)N=Nc1c(O)[nH]c2ccc(F)cc12", "value": 0.997}
{"compound": "O=C(CC1NCCN(Cc2ccccc2)C1=O)Nc1ccc(Cl)cc1 (stereo not given)", "value": 0.998}
{"compound": "Cn1c2c(c(=O)n(C)c1=O)CN(CCCCCCO)CN2", "value": 1}
{"compound": "CCOC(=O)CNc1ccc(F)cc1", "value": 0.983}
{"compound": "S=c1nc2[nH]c3ccccc3c2n[nH]1", "value": 0.99}
{"compound": "CCc1nnc(N=CNO)s1", "value": 1}
{"compound": "CC(C)(C)S(=O)(=O)/C(C#N)=C/c1ccc(F)cc1F", "value": 0.987}
{"compound": "O=[N+]([O-])c1ccc(N2CCCCC2)nc1N1CCCCC1", "value": 0.954}
{"compound": "CSc1nc(N)n(-c2ccccc2)n1", "value": 1.02}
{"compound": "Cc1oc(C(C)(C)C)cc1C(=O)Nc1ccc([N+](=O)[O-])cc1", "value": 0.992}
{"compound": "COc1ccc(/C=C2\\CC/C(=C\\c3ccc(OC)c(OC)c3)C2=O)cc1OC", "value": 1.01}
{"compound": "N#CCCN(CC1CCCO1)C(=S)Nc1cc(C(F)(F)F)cc(C(F)(F)F)c1 (stereo not given)", "value": 1.01}
{"compound": "O=[N+]([O-])c1cc(C(F)(F)F)c(N2CCCCC2)cc1N1CCCCC1", "value": 0.974}
